These measurements were taken from ChEMBL document CHEMBL1158601.

assay: Half life in mouse at 10 mg/kg, po; assay type: ADME, organism-based; design: dose 10 mg/kg, route oral; conditions: in vivo
Endpoint Name: half-life

{"Smiles Entry": "N#Cc1ccc(S(=O)(=O)N(Cc2ccc(-c3nnn[nH]3)c(F)c2)Cc2ccccc2F)cc1", "Assay Value": "1 h"}

====

microsomal CLint values by entry
assay: Intrinsic clearance in human liver microsomes assessed per mg of protein; assay type: ADME, Microsome

{"Smiles Entry": "CC(=O)Nc1cccc(/C(C)=N\\NC(=O)c2ccc(CN(Cc3ccccc3)S(=O)(=O)c3ccc(Cl)cc3)cc2)c1", "Comparison Symbol": "=", "microsomal CLint, µL/min/mg": 92}
{"Smiles Entry": "O=C(NC1(c2ccccc2)CC1)c1ccc(CN(Cc2ccccc2)S(=O)(=O)c2ccc(Cl)cc2)cc1", "Comparison Symbol": "=", "microsomal CLint, µL/min/mg": 211}
{"Smiles Entry": "O=S(=O)(c1ccc(Cl)cc1)N(Cc1ccc(-c2nnn[nH]2)cc1)Cc1ccccn1", "Comparison Symbol": "<", "microsomal CLint, µL/min/mg": 10}
{"Smiles Entry": "O=S(=O)(c1ccc(Cl)cc1)N(Cc1ccc(-c2nnn[nH]2)c(F)c1)Cc1ccccc1F", "Comparison Symbol": "<", "microsomal CLint, µL/min/mg": 10}
{"Smiles Entry": "N#Cc1ccc(S(=O)(=O)N(Cc2ccc(C(=O)NC3(c4ccccc4)CC3)cc2)Cc2ccccn2)cc1", "Comparison Symbol": "=", "microsomal CLint, µL/min/mg": 435}
